Where these numbers come from: patent US20100196390A1

Target: TrkB (Homo sapiens (Human), UniProt Q16620 32-430)
Sequence (Q16620 32-430 limits assumed): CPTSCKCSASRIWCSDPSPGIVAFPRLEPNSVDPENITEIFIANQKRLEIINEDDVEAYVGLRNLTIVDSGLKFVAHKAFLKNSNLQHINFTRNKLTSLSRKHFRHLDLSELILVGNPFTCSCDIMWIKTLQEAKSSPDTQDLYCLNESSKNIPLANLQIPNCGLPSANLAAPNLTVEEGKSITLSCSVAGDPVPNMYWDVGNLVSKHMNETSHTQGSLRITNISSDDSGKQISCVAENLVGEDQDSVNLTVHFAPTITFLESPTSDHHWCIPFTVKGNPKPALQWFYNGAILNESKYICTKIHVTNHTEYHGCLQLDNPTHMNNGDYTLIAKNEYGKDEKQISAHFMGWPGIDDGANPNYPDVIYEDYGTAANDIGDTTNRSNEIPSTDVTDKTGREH
Assay: koff of Fab at 25 C; T1/2=Log2/koff
Known T1/2 of a selection of binders
Kindly provide the numeric value in min only, without the unit symbol.

Asked: # T1/2 lookup, item 4B12-19 (Fab, V domains shown, Fab) VH: QVQLVQSGAEVKKPGASVKVSCKASGYTFTNYDIIWVRQAPGQGLEWMGYINPYNGRREANEKFKGRVTMTRDTSTSTVYMELSSLRSEDTAVYYCARLLKYRRFRYYAIDYWGQGTTVTVSS VL: DIQMTQSPSSLSASVGDRVTITCRASEPVYSNVAWYQQKPGKAPKLLIYAASNLQSGVPSRFSGSGSGTDYTFTISSLQPEDIATYYCQHFWGSPFTFGQGTKLEIK
Given back: 13.1

Asked: Next record, please: 3-F11 (Fab, V domains shown, Fab) VH: QVQLVQSGAEVKKPGASVKVSCKASGYTFTNYVILWVRQAPGQGLEWMGYINPYNDGTKYNEKFKGRVTMTRDTSTSTVYMELSSLRSEDTAVYYCARLLKYRRFRYYAIDYWGQGTTVTVSS VL: DIQMTQSPSSLSASVGDRVTITCRASENVYSNLAWYQQKPGKAPKLLIYAASNLQSGVPSRFSGSGSGTDFTFTISSLQPEDIATYYCQHFWYSPFTFGQGTKLEIK
Given back: 1.16

Asked: Next record, please: 10-E10 (Fab, V domains shown, Fab) VH: QVQLVQSGAEVKKPGASVKVSCKASGYTFTNYDIIWVRQAPGQGLEWMGYINPYNDGRKENEKFKGRVTMTRDTSTSTVYMELSSLRSEDTAVYYCARLLKYRRFRYYAIDYWGQGTTVTVSS VL: DIQMTQSPSSLSASVGDRVTITCRASENVYSNLAWYQQKPGKAPKLLIYAASNLQSGVPSRFSGSGSGTDFTFTISSLQPEDIATYYCQHFWGSPFTFGQGTKLEIK
Given back: 2.7
